Catalogue of MFI readings, one per entry.
# TARGET OR SYSTEM: T1, human B7-H7 expressed on the cell surface (human, UniProt Q9UM44 23-414)
# T1 construct: also called hB7-H7; HHLA2
# T1 sequence: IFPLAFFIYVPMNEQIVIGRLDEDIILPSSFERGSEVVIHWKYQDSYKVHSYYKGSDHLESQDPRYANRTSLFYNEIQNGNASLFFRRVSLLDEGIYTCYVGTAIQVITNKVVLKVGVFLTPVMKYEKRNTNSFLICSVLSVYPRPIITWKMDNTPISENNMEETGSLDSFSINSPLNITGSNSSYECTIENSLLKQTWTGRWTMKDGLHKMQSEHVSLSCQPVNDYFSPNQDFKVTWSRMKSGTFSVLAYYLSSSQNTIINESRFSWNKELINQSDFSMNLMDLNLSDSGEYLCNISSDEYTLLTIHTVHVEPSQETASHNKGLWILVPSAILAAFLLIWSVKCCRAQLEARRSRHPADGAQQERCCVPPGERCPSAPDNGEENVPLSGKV
# ASSAY NOTES: FACS on HEK-293T cells expressing human B7-H7

BINDER: anti-B7-H7 antibody 16D5 (antibody, V domains shown, Mouse hybridoma antibody) VH: QVQLQQSAAELARPGASVKMSCKASGYTFTTYTMHWVKQRPGQGLEWIGYINPSRGYSDYSQKFQGKSTLTTDKSSNTAYIQLTSLTSEDSAVYFCARGGYDFDYWGQGTTLTVSS VL: DIVMTQSHKFMSTSVGDRVSITCKASQDVGTAVAWYQQKPGQSPKLLLYWASTRHTGVPDRFTGSGSGTDYTLTISSVQAEDLALYHCQQHFITPYTFGGGTKLEIK
MFI: 165 MFI
--
BINDER: anti-B7-H7 antibody 5B10 (antibody, V domains shown, Mouse hybridoma antibody) VH: EVQLQQSGPELEKPGASVKISCKASGYSFTGYNMNWVKQSNGKSLEWIGNIDPYSGGSTYNQKFKGKATLTVDKSSSTASLQLKSLTSEDSSVYYCARSFYDAPYLTYWGQGTLVTVSA VL: DIQMTQSPTSLSASVGETVTITCRASENIFIYLAWYQQKQGKSPQLLVFNAKTLAEGVPSRFSGSGSGTQFSLKINSLRPEDFGTYYCQHHYGTPPTFGGGTKLEV
MFI: 82 MFI
--
BINDER: anti-B7-H7 antibody 5C9 (antibody, V domains shown, Mouse hybridoma antibody) VH: QVQLQQSGAELAKPGASVKMSCKASGYTFTSFWIHWIKQRPGQGLEWIGYIIPNTDYTEYNQKFKDKATFTADKSSSTAYMQLSSLTSEDSAVFYCARGLRGAYYFDYWGQGTTLTVSS VL: DIVLTQSPASLAVSLGLRATISCRSSQSVSTSTNGYMHWYQQKPGQPPKLLIMYASNLESGVPARFSGSGSGTDFTLNIHPVDEEDTATYYCQHSWVLPYTFGGGTKLEIK
MFI: 185 MFI
--
BINDER: anti-B7-H7 antibody 1D3 (antibody, V domains shown, Mouse hybridoma antibody) VH: EVQLQQSGPELEKPGASVKISCKASGYSFTGYNMNWVKESNGRSLEWIGNIDPYSGGSTYNQKFKGKATMTVDKSSSTAYMQLKSLTSEDSAVYYCARSVYDAPWLAHWGQGTLVTVSA VL: DIQMTQSPASLSASVGETVTITCRASENIYIYLAWYQQKQGKSPQLLVYNAKTLAEGVPSRFSGSGSGTQFSLKINRLQPEDFGNYYCQHHYGTPPTFGGGTKLEIK
MFI: 247 MFI
--
BINDER: anti-B7-H7 antibody 3H6 (antibody, V domains shown, Mouse hybridoma antibody) VH: EVQLQQSGPELVKPGASVKISCKTSGYTFTEYTMHWVKQSHGKSLEWIGGINPNNGGAPYNQKFKGKATLTVDKSSSTAYMELRSLTSEDSAVYYCARGGYYFDYWGQGTTLTVSS VL: DIVMTQSHKFMSTSVGDRVSITCKASQDVSTAVAWYQQKSGQSPKLLIYWASTRHTGVPDRFTGSGSGTDYTLTISSVQAEDLALYYCQQHYDTPFTFGGGTKLEIK
MFI: 41 MFI
--
BINDER: anti-B7-H7 antibody 2F10 (antibody, V domains shown, Mouse hybridoma antibody) VH: EIQLQQTGPELVKPGASLRISCKASGYSFTDYIIVWVKQNQGKNLDWIEKINPYYGTTTYNLRFEDKATLTVNKSSTTAYMQLNSLTSEDSAVYYCARWDYVSTLFAMDYWGQGTSITVSS VL: DIVMTQSHKVMSTSVGDRVSIICKASQDVGTAVAWYQQKPGQSPKLLIYWASTRHTGVPDRFTGSGSGTDFILTITNVQSENLANYFCQQYKRYYTFGGGTKLEIK
MFI: 101 MFI
